Tested on: SH-SY5Y neuroblastoma cells
Test: MTT cytotoxicity (24 h) / antiproliferation (72 h) assay
Type: cell-based, human
Conditions: 72 h exposure; MTT
MEASURED QUANTITY: IC50 (nM)
Only the number, expressed in nM, is required.

Req: Sample N.N.[Cl][Pt][Cl] [Cisplatin, reference compound] — what was its IC50?
Resp: 650

* * *

Target: OCT2 (Homo sapiens)
Construct: expressed in transfected cells
Sequence (O15244 whole entry): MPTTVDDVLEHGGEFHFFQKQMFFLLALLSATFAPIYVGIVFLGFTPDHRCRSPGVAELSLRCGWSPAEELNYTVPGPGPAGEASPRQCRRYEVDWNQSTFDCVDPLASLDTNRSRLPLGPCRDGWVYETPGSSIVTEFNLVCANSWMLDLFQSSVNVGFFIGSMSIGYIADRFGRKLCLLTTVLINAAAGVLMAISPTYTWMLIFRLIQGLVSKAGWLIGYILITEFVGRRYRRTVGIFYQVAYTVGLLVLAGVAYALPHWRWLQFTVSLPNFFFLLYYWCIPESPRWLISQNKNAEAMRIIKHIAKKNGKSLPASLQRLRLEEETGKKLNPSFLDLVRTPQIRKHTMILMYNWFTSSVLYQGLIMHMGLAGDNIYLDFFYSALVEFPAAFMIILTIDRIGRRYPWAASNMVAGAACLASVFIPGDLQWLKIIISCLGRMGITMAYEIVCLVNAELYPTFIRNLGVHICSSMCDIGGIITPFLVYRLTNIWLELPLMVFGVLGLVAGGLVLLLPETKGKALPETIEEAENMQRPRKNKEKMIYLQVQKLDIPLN
Assay: [3H]-MPP+ uptake inhibition assay in HEK-293 cells
Assay type: cell-based
Settings: HEK cells stably expressing human OCT2; 10 min uptake
For each record, write down the corresponding IC50.
Give a bare numeral; the unit µM is implied.

Req: State the recorded IC50 for this entry: C[N+](C)(C)Cc1ccc(O)c(/C=N/NC(=S)Nc2ccccc2)c1 [[H2L^Ph]Cl]
Resp: 371

Req: Same for CCNC(=S)N/N=C/c1cc(C[N+](C)(C)C)ccc1O [[H2L^Et]Cl]
Resp: 236
